Where do the numbers come from? From the supplement of paper PMC9942255.

Tested on: Bacillus subtilis DB104 (SP-AmyQ fusion secretion)
Test: AmyQ secretion efficiency, weighted average sort bin (1 = best secretion, 10 = worst) (bin number (weighted average, 1-10)); higher = lower secretion efficiency
Classify by measured AmyQ secretion efficiency: Yes if it is equal to or exceeds 4, No if it is smaller.

MTKRGIQAFAGGIILATAVLAAVFYLTDEDQAAAR	Yes
MKRIRIPMTLALGAALTIAPLSFASFEEN	Yes
MKKKLAAGLTASAIVGTTLVVTPTEAATI	No

Given the entry `MNFKKTVVSALSISALALSVSGVASSHEI` , answer whether its AmyQ secretion efficiency meets or surpasses 4.
Yes

Given the entry `MRNLTKYYTTLAGLCTAAQMVFVTHASAEES` , answer whether its AmyQ secretion efficiency meets or surpasses 4.
No

Given the entry `MFSKWMSGLLLVAVGFSFTQVMVHAGET` , answer whether its AmyQ secretion efficiency meets or surpasses 4.
Yes

Given the entry `MKKGIIRFLLVSFVLFFALSTGITGVQDAPA` , answer whether its AmyQ secretion efficiency meets or surpasses 4.
Yes

Given the entry `MTVPKTMLLSTAAGLLLSLTATSVSAHYV` , answer whether its AmyQ secretion efficiency meets or surpasses 4.
Yes
